settings: in acetonitrile, 288.15 K
property: solubility (mole fraction)
Write the number on its own, no unit after it.

Task: Please list solubility (mole fraction) recorded for the compound OC(Cc1ccccc1Cl)(Cn1[nH]cnc1=S)C1(Cl)CC1 (stereo unspecified)
Output: 0.008

###

settings: in toluene, 288.15 K
property: solubility (mole fraction)
API note: the answer field is a bare number with no unit suffix.

Task: Dear colleague, please send me the reported solubility (mole fraction) for OC(Cc1ccccc1Cl)(Cn1[nH]cnc1=S)C1(Cl)CC1 (stereo unspecified) when you can.
Output: 0.00287

###

conditions: in methanol, 293.15 K
property: solubility (mole fraction)
Answer as a number with no unit attached.

Task: Please give measured solubility (mole fraction) of the following entry: OC(Cc1ccccc1Cl)(Cn1[nH]cnc1=S)C1(Cl)CC1 (stereo unspecified)
Output: 0.0154

###

details: in n-butanol, 308.15 K
property: solubility (mole fraction)
Just the number, please, no unit attached.

Task: Quote solubility (mole fraction) reported for OC(Cc1ccccc1Cl)(Cn1[nH]cnc1=S)C1(Cl)CC1 (stereo unspecified) please.
Output: 0.0417

###

details: in n-propanol, 283.15 K
property: solubility (mole fraction)
// response body must contain only the number

Task: Look up solubility (mole fraction) of OC(Cc1ccccc1Cl)(Cn1[nH]cnc1=S)C1(Cl)CC1 (stereo unspecified) and report it.
Output: 0.0125

###

settings: in acetonitrile, 313.15 K
property: solubility (mole fraction)
Kindly provide the number alone.

Task: Return reported solubility (mole fraction). Input compound: OC(Cc1ccccc1Cl)(Cn1[nH]cnc1=S)C1(Cl)CC1 (stereo unspecified)
Output: 0.0254

###

conditions: in isopropanol, 303.15 K
property: solubility (mole fraction)

Task: Give recorded solubility (mole fraction). OC(Cc1ccccc1Cl)(Cn1[nH]cnc1=S)C1(Cl)CC1 (stereo unspecified)
Output: 0.0268

###

conditions: in acetonitrile, 293.15 K
property: solubility (mole fraction)
Hey, just send me the number, nothing else.

Task: Input OC(Cc1ccccc1Cl)(Cn1[nH]cnc1=S)C1(Cl)CC1 (stereo unspecified) , output reported solubility (mole fraction).
Output: 0.0103

###

conditions: in acetonitrile, 308.15 K
property: solubility (mole fraction)
# respond with the number and nothing more

Task: Consider the compound OC(Cc1ccccc1Cl)(Cn1[nH]cnc1=S)C1(Cl)CC1 (stereo unspecified) and give its recorded solubility (mole fraction).
Output: 0.0214

###

settings: in toluene, 308.15 K
property: solubility (mole fraction)

Task: Input OC(Cc1ccccc1Cl)(Cn1[nH]cnc1=S)C1(Cl)CC1 (stereo unspecified) , output reported solubility (mole fraction).
Output: 0.00782

###

details: in toluene, 293.15 K
property: solubility (mole fraction)
Reply: number alone, nothing else.

Task: Note down solubility (mole fraction) recorded for OC(Cc1ccccc1Cl)(Cn1[nH]cnc1=S)C1(Cl)CC1 (stereo unspecified)
Output: 0.00368

###

conditions: in sec-butanol, 308.15 K
property: solubility (mole fraction)
Give the value as a plain number.

Task: Name the recorded solubility (mole fraction) of the item OC(Cc1ccccc1Cl)(Cn1[nH]cnc1=S)C1(Cl)CC1 (stereo unspecified) in your answer.
Output: 0.0259

###

settings: in sec-butanol, 303.15 K
property: solubility (mole fraction)
Write the value as a bare number.

Task: Name the recorded solubility (mole fraction) of the molecule listed here: OC(Cc1ccccc1Cl)(Cn1[nH]cnc1=S)C1(Cl)CC1 (stereo unspecified)
Output: 0.0191
